The measurements presented in this section are drawn from the supplement of paper PMC7877785.

assay protocol: self-splicing fitness, log relative to wild type (ln ratio); higher = more splicing; Tetrahymena group I intron in knt gene, E. coli kanamycin selection, DiMSum; sequences stand for … in CUCUCU…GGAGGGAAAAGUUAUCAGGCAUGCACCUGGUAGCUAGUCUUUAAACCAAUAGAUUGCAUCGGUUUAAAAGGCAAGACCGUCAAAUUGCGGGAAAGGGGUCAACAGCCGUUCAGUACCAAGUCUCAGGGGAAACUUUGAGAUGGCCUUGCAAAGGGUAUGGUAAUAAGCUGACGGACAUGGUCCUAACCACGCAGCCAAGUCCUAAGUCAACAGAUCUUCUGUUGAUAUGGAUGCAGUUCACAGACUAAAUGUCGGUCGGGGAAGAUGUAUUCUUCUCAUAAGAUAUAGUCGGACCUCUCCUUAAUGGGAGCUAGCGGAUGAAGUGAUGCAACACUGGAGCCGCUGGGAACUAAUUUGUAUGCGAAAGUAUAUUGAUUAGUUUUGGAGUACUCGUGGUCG;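 also: selection with 25 µg/mL kanamycin versus none on LB agar overnight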
measurement parameters: 30 °C
In this section, each of the sequences is paired with its reported self-splicing fitness (ln).
value type: self-splicing fitness (ln)

residue codes	numeric readout
GAAAAGCAAUAUUACGAACU	-0.519
UACCAGCAAUAUUACGCCCU	-0.895
AAUAAGCAAUAUUACGCGUG	-0.604
ACGCAGCAAUAUUACGUUUG	-3.65
AGAAAGCAAUAUUACGGGGU	-3.8
CGUGAGCAAUAUUACGAUAA	-4.37
UUUCAGCAAUAUUACGACCG	0.263
UAAUAGCAAUAUUACGGGUG	-1.9
UAUCAGCAAUAUUACGUGCA	-0.589
CGCGAGCAAUAUUACGACAC	-3.42
CUGCAGCAAUAUUACGAAUU	-3.62
UAAGAGCAAUAUUACGGCUC	-1.82
AUGCAGCAAUAUUACGCACA	-0.62
GCCUAGCAAUAUUACGCACG	-1.79
GCUAAGCAAUAUUACGACAG	-2.67
CUGUAGCAAUAUUACGAGAU	-3.86
CAGUAGCAAUAUUACGGCCU	-3.02
GGUUAGCAAUAUUACGUGUC	-1.03
CAUCAGCAAUAUUACGGAAU	-2.46
GUCUAGCAAUAUUACGAUAA	-1.09
GUGAAGCAAUAUUACGGGUA	-0.994
AUCCAGCAAUAUUACGUUAU	-1.36
AGGGAGCAAUAUUACGUAUA	-3.19
AGUUAGCAAUAUUACGUUCC	-0.837
GCAAAGCAAUAUUACGUUCU	-1.44
CUUGAGCAAUAUUACGGUGU	-3
GUCGAGCAAUAUUACGUCAG	-3.08
ACUCAGCAAUAUUACGGCGC	-0.183
CGUUAGCAAUAUUACGUGUC	-4.28
UGUGAGCAAUAUUACGUAAA	-2.31
UGGAAGCAAUAUUACGGGAU	-1.89
AAUAAGCAAUAUUACGGACC	-1.54
CACCAGCAAUAUUACGCUCC	-3.91
CCAAAGCAAUAUUACGAGAA	-3.52

----------
assay protocol: self-splicing fitness, log relative to wild type (ln ratio); higher = more splicing; Tetrahymena group I intron in knt gene, E. coli kanamycin selection, DiMSum; sequences stand for … in CUCUCU…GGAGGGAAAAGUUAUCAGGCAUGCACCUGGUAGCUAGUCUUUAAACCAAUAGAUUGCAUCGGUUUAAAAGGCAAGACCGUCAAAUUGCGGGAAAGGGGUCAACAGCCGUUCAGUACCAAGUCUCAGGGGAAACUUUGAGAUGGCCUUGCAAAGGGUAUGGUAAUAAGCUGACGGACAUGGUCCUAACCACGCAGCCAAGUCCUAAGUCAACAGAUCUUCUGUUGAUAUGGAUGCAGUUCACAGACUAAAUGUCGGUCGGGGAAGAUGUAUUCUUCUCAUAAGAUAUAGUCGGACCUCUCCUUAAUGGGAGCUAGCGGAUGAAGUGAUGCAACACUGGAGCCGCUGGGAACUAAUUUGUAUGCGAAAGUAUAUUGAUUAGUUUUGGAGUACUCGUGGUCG
measurement parameters: 37 °C

residue codes	self-splicing fitness (ln)
GAUGAGCAAUAUUACGUCAC	-2.47
GGGGAGCAAUAUUACGGGAU	-1.51
UUAUAGCAAUAUUACGAAGG	-1.67
AGGUAGCAAUAUUACGACCC	-1.69
GGGCAGCAAUAUUACGUUCC	-2.58
CAACAGCAAUAUUACGCCCU	-1.24
UAACAGCAAUAUUACGUGAA	-0.749
ACGUAGCAAUAUUACGCGCC	-0.895
GGCAAGCAAUAUUACGGUAG	-2.2
AAGUAGCAAUAUUACGCCGA	-1.39
GUAAAGCAAUAUUACGUUCG	-0.407
GAAAAGCAAUAUUACGUUUC	-2.69
GACAAGCAAUAUUACGCGGG	-2.52
AGGAAGCAAUAUUACGCGAC	-0.793
UGCGAGCAAUAUUACGCAGA	-1.84
GCUAAGCAAUAUUACGCGCU	-1.57

----------
In this section, each of the sequences is paired with its reported self-splicing fitness (ln).
assay protocol: self-splicing fitness, log relative to wild type (ln ratio); higher = more splicing; Tetrahymena group I intron in knt gene, E. coli kanamycin selection, DiMSum; sequences stand for … in CUCUCU…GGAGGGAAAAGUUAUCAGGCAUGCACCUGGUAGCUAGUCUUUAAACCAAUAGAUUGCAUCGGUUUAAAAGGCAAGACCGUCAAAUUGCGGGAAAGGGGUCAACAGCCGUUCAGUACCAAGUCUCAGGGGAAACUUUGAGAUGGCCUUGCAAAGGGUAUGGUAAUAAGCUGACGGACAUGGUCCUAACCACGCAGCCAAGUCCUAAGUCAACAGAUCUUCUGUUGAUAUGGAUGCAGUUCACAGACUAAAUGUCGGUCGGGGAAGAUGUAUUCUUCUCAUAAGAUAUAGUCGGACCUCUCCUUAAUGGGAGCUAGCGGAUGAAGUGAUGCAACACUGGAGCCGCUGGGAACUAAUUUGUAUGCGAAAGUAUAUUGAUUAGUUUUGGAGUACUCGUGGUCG
measurement parameters: 30 °C
value type: self-splicing fitness (ln)

residue codes	value type	numeric readout
GCAUAGCAAUAUUACGGAUC	self-splicing fitness (ln)	-2.47
UCAAAGCAAUAUUACGGGUA	self-splicing fitness (ln)	-0.981
GUAGAGCAAUAUUACGUUUC	self-splicing fitness (ln)	-1.87
GGGCAGCAAUAUUACGCCAC	self-splicing fitness (ln)	-3.34
GAAUAGCAAUAUUACGUGAU	self-splicing fitness (ln)	-3.48
CAUGAGCAAUAUUACGUCGC	self-splicing fitness (ln)	-3.59
GUCGAGCAAUAUUACGGAUU	self-splicing fitness (ln)	-2.03
AGAGAGCAAUAUUACGCGUU	self-splicing fitness (ln)	-2.09
GGGAAGCAAUAUUACGUGUA	self-splicing fitness (ln)	-1.96
CCUCAGCAAUAUUACGCGAA	self-splicing fitness (ln)	-3.88
UCGGAGCAAUAUUACGCUCU	self-splicing fitness (ln)	-2.27
CCACAGCAAUAUUACGAAUU	self-splicing fitness (ln)	-3.64
CUGUAGCAAUAUUACGGGCG	self-splicing fitness (ln)	-1.86
UUGAAGCAAUAUUACGAUUA	self-splicing fitness (ln)	0.283
CGCCAGCAAUAUUACGUAAC	self-splicing fitness (ln)	-3.91
GCGUAGCAAUAUUACGUGCU	self-splicing fitness (ln)	-2.05

----------
assay protocol: self-splicing fitness, log relative to wild type (ln ratio); higher = more splicing; Tetrahymena group I intron in knt gene, E. coli kanamycin selection, DiMSum; sequences stand for … in CUCUCU…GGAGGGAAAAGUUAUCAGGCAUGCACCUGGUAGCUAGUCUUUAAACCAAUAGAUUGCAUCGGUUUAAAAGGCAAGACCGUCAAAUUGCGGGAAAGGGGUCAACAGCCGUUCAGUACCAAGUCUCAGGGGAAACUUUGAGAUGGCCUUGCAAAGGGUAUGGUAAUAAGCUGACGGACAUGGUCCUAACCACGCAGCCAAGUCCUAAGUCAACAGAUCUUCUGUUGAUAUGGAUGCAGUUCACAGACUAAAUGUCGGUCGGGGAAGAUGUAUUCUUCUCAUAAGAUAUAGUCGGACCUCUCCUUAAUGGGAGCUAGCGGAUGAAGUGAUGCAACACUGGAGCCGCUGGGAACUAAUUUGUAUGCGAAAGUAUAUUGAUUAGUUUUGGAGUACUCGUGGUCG
measurement parameters: 30 °C
Label label 1 when self-splicing fitness (ln) is at or above -3; otherwise label label 0.

residue codes	discrete label
CUCUAGCAAUAUUACGGAGA	label 1
GGGCAGCAAUAUUACGUUCC	label 1
GCUCAGCAAUAUUACGUGGA	label 1
CCCAAGCAAUAUUACGACAA	label 0
GCAGAGCAAUAUUACGUCUA	label 1
UGACAGCAAUAUUACGUAGA	label 1
AAGCAGCAAUAUUACGAUCA	label 1
CCCUAGCAAUAUUACGUUCU	label 0
CAGGAGCAAUAUUACGAUGU	label 0
UGAAAGCAAUAUUACGACCC	label 1
AGGUAGCAAUAUUACGUUUU	label 1
GGGCAGCAAUAUUACGCUAA	label 1
UUCAAGCAAUAUUACGAGCA	label 1
GAACAGCAAUAUUACGUUUC	label 0
CUGCAGCAAUAUUACGGUAC	label 0
UACUAGCAAUAUUACGGGCU	label 0
